Kindly state % inhibition for each of the entries shown.
# Tested on: Trypanosoma brucei
# PROTOCOL: DNDI: Inhibition of Human African Trypanosomiasis, SBRI 427, in vitro at 2 ug.mL-1
# Assay type: functional
The campaign covered roughly 4,400 compounds. About 390 (8.9%) showed an effect of 50% or more. This excerpt belongs to a sample that is enriched for strong results.
Just the number please, in %, no unit attached.

Any idea what its % inhibition is? The compound is `Cc1ccc(/C(=N/O)NCC(C)(C)C)c(Oc2cc(Cl)ccc2Cl)n1`
100

Ok, now `COc1ccc(Oc2ncccc2/C(=N/O)NCc2ccccc2F)cc1`
70

Ok, now `CCOc1ccc(-c2nc(CN(C)CCc3ccc(OC)c(OC)c3)co2)cc1`
-3

Ok, now CC1CCc2ccccc2N1/C(=N\O)c1cccnc1Oc1ccc(-n2cncn2)cc1 (stereo unspecified)
81

Ok, now `C=CCN1CCN(/C(=N\O)c2ccc(C)nc2OCc2cccc(F)c2)CC1`
3

Ok, now `CCOc1ccccc1CN/C(=N\O)c1ccc(Oc2ccc(C)cc2OC)nc1`
25

Ok, now `O/N=C(\NCc1ccccc1F)c1cccnc1OCC(F)(F)F`
-12

Ok, now `Cc1ccc(CN/C(=N\O)c2ccc(Oc3cc(Cl)ccc3Cl)nc2)o1`
9

Ok, now `O/N=C(/c1ccc(Oc2ccc3ccccc3c2)nc1)N1CCCCC1`
12

Ok, now `Cc1cccc(Oc2nc(C)ccc2/C(=N/O)N2CCN(c3ccc(F)cc3)CC2)c1`
12

Ok, now `CCC(CC)N/C(=N\O)c1ccc(C)nc1Oc1cccc(C(C)C)c1`
6

Ok, now `CCC(CC)N/C(=N\O)c1ccc(C)nc1Oc1ccc(F)c(Cl)c1`
100

Ok, now `Cc1ccccc1-c1nc(CN2CCN(c3ccc(F)cc3)CC2)co1`
-10

Ok, now Cc1ccc(/C(=N/O)N2C(C)C=CC2C)c(Oc2cccc(C(C)C)c2)n1 (stereo unspecified)
20

Ok, now `Fc1ccccc1-c1nc(CNCC(F)(F)C(F)(F)F)co1`
21

Ok, now `CCC(CC)N/C(=N\O)c1ccc(C)nc1Oc1cccc(F)c1`
88

Ok, now Cc1ccc(/C(=N/O)NC2CC(C)CC(C)(C)C2)c(Oc2ccc(Cl)cc2-c2ccno2)n1 (stereo unspecified)
16

Ok, now `CCOc1ccccc1CN/C(=N\O)c1ccc(Oc2ccc(Cl)cc2)nc1`
1

Ok, now Cc1cc(Oc2ccc(/C(=N/O)N3CC(C)CC(C)C3)cn2)cc(C(C)C)c1 (stereo unspecified)
4

Ok, now `Cc1ccc(/C(=N/O)NCc2ccccn2)c(Oc2cc(Cl)ccc2Cl)n1`
30

Ok, now `CCOc1ccccc1-c1nc(CN2CCCCCC2)co1`
7

Ok, now CC1CC(C)CN(Cc2coc(-c3ccc(Br)cc3)n2)C1 (stereo unspecified)
-5

Ok, now `Cc1cc(C)cc(Oc2ccc(/C(=N/O)N3CCN(C4CCCC4)CC3)cn2)c1`
0

Ok, now `CCOc1ccccc1CN/C(=N\O)c1ccnc(Oc2ccc(Cl)cc2)c1`
7

Ok, now CC1CC(N/C(=N\O)c2cccnc2Oc2ccc(C(C)C)cc2)CC(C)(C)C1 (stereo unspecified)
98

Ok, now `CCN(Cc1coc(-c2ccccc2F)n1)c1ccc(C)cc1`
-32

Ok, now CC(C)COc1ncccc1/C(=N/O)NCC1CCCO1 (stereo unspecified)
6

Ok, now CC1CCC(C)N1/C(=N\O)c1cccnc1Oc1ccc(-n2cncn2)cc1 (stereo unspecified)
9

Ok, now COCC(C)N/C(=N\O)c1ccc(C)nc1Oc1cccc(F)c1 (stereo unspecified)
20

Ok, now `Cc1ccc(/C(=N/O)n2nc(C)cc2C)c(Oc2ccc3ccccc3c2)n1`
6

Ok, now `Cc1ccccc1CN/C(=N\O)c1cccnc1Oc1cc(Cl)ccc1Cl`
99

Ok, now `O/N=C(\NCc1ccccc1)c1cccnc1Oc1cc(Cl)ccc1Cl`
100

Ok, now `C=CCN1CCN(/C(=N\O)c2ccc(C)nc2Oc2ccc(C)cc2C)CC1`
14

Ok, now COc1ccc(Oc2ncccc2/C(=N/O)NCC2CCCO2)cc1 (stereo unspecified)
-15

Ok, now `CCOc1ccccc1CN/C(=N\O)c1ccc(Oc2cc(C)cc(C)c2)nc1`
28

Ok, now `CCOc1ccccc1CN/C(=N\O)c1cccnc1Oc1ccc(Cl)cc1`
87

Ok, now `CCC(CC)N/C(=N\O)c1ccc(C)nc1Oc1cc(Cl)ccc1Cl`
100

Ok, now CC1CCCN1/C(=N\O)c1ccc(Oc2ccc3ccccc3c2)nc1 (stereo unspecified)
99

Ok, now `CCCN(Cc1coc(-c2cccc(F)c2)n1)CC1CC1`
17

Ok, now `CCC(C)(C)N/C(=N\O)c1ccc(C)nc1Oc1cc(Cl)ccc1Cl`
63

Ok, now `COc1cccc(-c2nc(CN(C)CCC#N)co2)c1`
4

###

# Tested on: Trypanosoma brucei
# PROTOCOL: DNDI: Inhibition of Human African Trypanosomiasis, SBRI 427, in vitro at 2 ug.mL-1
# Type: functional
About 390 (8.9%) of roughly 4,400 compounds showed an effect of 50% or more. Shown is part of a subset that was picked to be rich in strong results.
Kindly state % inhibition for each of the entries shown.
Just the number please, in %, no unit attached.

Any idea what its % inhibition is? The compound is `O/N=C(/c1ccnc(Oc2ccc(F)c(Cl)c2)c1)N1CC=CCC1`
17

Ok, now `CCCCN(CC)Cc1coc(-c2cccc(OC)c2)n1`
-18

Ok, now `C=CCN(C)Cc1coc(-c2cccc(OC)c2)n1`
27

Ok, now `O/N=C(\NCc1c(F)cccc1F)c1ccnc(Oc2cccc3c2CCCC3)c1`
37

Ok, now `O/N=C(\NCC1CCCCC1)c1ccc(Oc2cccc3ccccc23)nc1`
24

Ok, now `O/N=C(\NCC1CCCCC1)c1ccnc(Oc2cccc3c2CCCC3)c1`
96

Ok, now `Cc1ccc(Oc2nc(C)ccc2/C(=N/O)NCc2cccs2)cc1`
16

Ok, now `O/N=C(\Nc1ccccc1)c1cccnc1Oc1ccc2ccccc2c1`
14

Ok, now `O/N=C(\NC1CCCCC1)c1ccc(Oc2cc(Cl)ccc2Cl)nc1`
98

Ok, now Cc1ccc(/C(=N/O)NCCC2CCCN2C)c(OCc2ccccc2)n1 (configuration not stated)
22

Ok, now `Cc1ccc(/C(=N/O)N(C)C2CCCCC2)c(Oc2cccc(F)c2)n1`
10

Ok, now `COc1ccc(CCN(C)Cc2coc(-c3ccc(O)cc3)n2)cc1OC`
-29

Ok, now CCCN(Cc1coc(-c2cccc(F)c2)n1)C(C)CC (configuration not stated)
-4

Ok, now `Cc1ccc(CN/C(=N\O)c2ccnc(Oc3cccc4c3CCCC4)c2)o1`
40

Ok, now `O=C(c1ccco1)N1CCN(Cc2coc(-c3ccccc3F)n2)CC1`
4

Ok, now `CC(C)COc1ncccc1/C(=N/O)N(C)Cc1ccco1`
11

Ok, now `N/C(=N/O)c1cccnc1Oc1ccc2ccccc2c1`
-3

###

Kindly state % inhibition for each of the entries shown.
# Test system: Trypanosoma brucei
# PROTOCOL: DNDI: Inhibition of Human African Trypanosomiasis, SBRI 427, in vitro at 2 ug.mL-1
# Assay type: functional
Screen size: about 4,400 compounds; about 390 (8.9%) showed an effect of 50% or more. The full list was thinned out, with strong results kept by preference.
Just the number please, in %, no unit attached.

Any idea what its % inhibition is? The molecule is `COCCN/C(=N\O)c1ccnc(Oc2ccc(OC)cc2)c1`
41

Ok, now `CSc1ccc(Oc2ncccc2/C(=N/O)NCc2ccccn2)cc1C`
2

Ok, now `CSc1ccc(Oc2cc(/C(=N/O)NCc3ccncc3)ccn2)cc1`
9

Ok, now `O/N=C(\NCC1CCCCC1)c1ccnc(Oc2ccc(Cl)cc2)c1`
98

Ok, now CC1CCCN1/C(=N\O)c1ccnc(Oc2ccc(Cl)cc2)c1 (stereo not given)
-11

Ok, now `Cc1cn(Cc2coc(-c3ccc(C(F)(F)F)cc3)n2)c(C)n1`
2

Ok, now `O/N=C(\NCC1CCCCC1)c1ccnc(Oc2ccc(F)c(Cl)c2)c1`
5

Ok, now `Cc1ccccc1-c1nc(CN(CCC#N)Cc2ccccc2)co1`
-5

Ok, now `Cc1cc(C)cc(CN/C(=N\O)c2cccnc2OCc2ccccc2F)c1`
83

Ok, now `CC(C)(C)c1ccc(CNCc2coc(-c3ccc(O)cc3)n2)cc1`
36

Ok, now `CC(C)c1ccc(Oc2ncccc2/C(=N/O)NCc2c(F)cccc2F)cc1`
100

Ok, now `CN(C)CC(C)(C)CNCc1coc(-c2ccc(C(C)(C)C)cc2)n1`
9

Ok, now `Cc1cc(Oc2ccc(/C(=N/O)n3ccnc3)cn2)cc(C(C)C)c1`
1

Ok, now `Cc1ccc(-c2nc(Cn3cc(C)nc3C)co2)cc1`
18

Ok, now `Cc1ccccc1-c1nc(CN(CCN(C)C)Cc2ccccc2)co1`
54

Ok, now `O/N=C(\NC1CCCCC1)c1ccnc(Oc2ccc(Cl)cc2)c1`
99

Ok, now CC(C)C(C)NCc1coc(-c2ccc(C(C)(C)C)cc2)n1 (stereo not given)
72

Ok, now `CN(C)CCN(Cc1ccccc1)Cc1coc(-c2ccc(Br)cc2)n1`
23

Ok, now `Cc1cc(C)cc(CN/C(=N\O)c2cccnc2Oc2c(F)cccc2F)c1`
100

Ok, now `Cc1ccc(CNCc2coc(-c3ccc(C(C)(C)C)cc3)n2)o1`
0

Ok, now `COCCN/C(=N\O)c1ccnc(Oc2ccc(Cl)cc2)c1`
55

Ok, now `O/N=C(\NC1CCCC1)c1ccnc(Oc2ccc(Cl)cc2)c1`
93

Ok, now `CN(Cc1coc(-c2ccc(Br)cc2)n1)Cc1ccco1`
29

Ok, now `O/N=C(\NCc1ccncc1)c1ccnc(Oc2ccc(Cl)cc2)c1`
20

Ok, now `CCOc1ccc(Oc2cc(/C(=N/O)NCC3CCCCC3)ccn2)cc1`
33

Ok, now `O/N=C(\NCc1c(F)cccc1F)c1ccnc(Oc2ccc(Cl)cc2)c1`
12

Ok, now `Fc1cccc(-c2nc(CNc3cc[nH]n3)co2)c1`
45

Ok, now `Cc1ccccc1-c1nc(CN(C)Cc2ccccc2)co1`
-2

Ok, now `CCN(CC)CCN(CC)Cc1coc(-c2ccc(OC)cc2)n1`
14

Ok, now `O/N=C(/c1ccnc(Oc2ccc(Cl)cc2)c1)N1CCCCCC1`
18

Ok, now `Cc1cc(Oc2ccc(/C(=N/O)N3CCSCC3)cn2)cc(C(C)C)c1`
4

Ok, now `C=COCCCNCc1coc(-c2ccc(OC)cc2)n1`
-2

Ok, now `Cc1cc(C)cc(CN/C(=N\O)c2cccnc2Oc2c(F)c(F)cc(F)c2F)c1`
-3

Ok, now COCC(C)N/C(=N\O)c1ccc(Oc2ccc(Cl)cc2)nc1 (stereo not given)
31

Ok, now `CC(C)(C)CNCc1coc(-c2ccc(C(C)(C)C)cc2)n1`
99
